Biological target: T1, human TREM2 (human) (UniProt Q9NZC2)
T1 sequence (looked up): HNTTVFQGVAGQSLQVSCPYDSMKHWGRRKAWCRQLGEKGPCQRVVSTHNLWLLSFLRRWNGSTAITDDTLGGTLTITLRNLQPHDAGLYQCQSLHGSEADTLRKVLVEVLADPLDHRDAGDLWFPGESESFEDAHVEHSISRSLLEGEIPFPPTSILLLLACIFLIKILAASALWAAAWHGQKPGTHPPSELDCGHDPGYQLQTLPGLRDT
Assay: 2nd screen, 100 nM Ab
Experimental Readout: Binding Signal (fold over 6E7 parental antibody) (fold)
Numeric only. Scale: fold

Sure, the documented Binding Signal (fold over 6E7 parental antibody) for 6E7 variant V30 (antibody, V domains shown) VH: EVQLVQSGAEVKKPGESLKISCKGSGSSFTSYWIAWVRQMPGKGLEWMGIIYPGDSDTRYSPSFQGQVTISADKSISTAYLQWSSLKASDTAMYFCARQRTFYYDSSDYFDYWGQGTLVTVSS VL: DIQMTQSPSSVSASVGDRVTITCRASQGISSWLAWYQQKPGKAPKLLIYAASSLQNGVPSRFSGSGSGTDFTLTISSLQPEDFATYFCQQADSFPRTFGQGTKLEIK is 0.72

Sure, the documented Binding Signal (fold over 6E7 parental antibody) for 6E7 variant V83 (antibody, V domains shown) VH: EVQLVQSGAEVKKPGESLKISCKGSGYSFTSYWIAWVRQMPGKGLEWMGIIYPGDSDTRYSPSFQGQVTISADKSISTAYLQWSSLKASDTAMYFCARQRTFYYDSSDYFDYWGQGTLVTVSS VL: DIQMTQSPSSVSASVGDRVTITCRASQGISSWLAWYQQKPGKAPKLLIYAASSLQNGVPSRFSGSGSGTDFTLTISSLQPEDFATYFCQQAVSFPRTFGQGTKLEIK is 0.29

Sure, the documented Binding Signal (fold over 6E7 parental antibody) for 6E7 variant V79 (antibody, V domains shown) VH: EVQLVQSGAEVKKPGESLKISCKGSGYSFTSYWIAWVRQMPGKGLEWMGIIYPGDSDTNYSPSFQGQVTISADKSISTAYLQWSSLKASDTAMYFCARQRTFYYDSSDYFDYWGQGTLVTVSS VL: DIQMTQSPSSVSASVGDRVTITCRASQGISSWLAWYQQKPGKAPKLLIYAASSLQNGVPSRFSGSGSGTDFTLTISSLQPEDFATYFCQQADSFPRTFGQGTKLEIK is 0.52

Sure, the documented Binding Signal (fold over 6E7 parental antibody) for 6E7 variant V6 (antibody, V domains shown) VH: EVQLVQSGAEVKKPGESLKISCKGSGYSFTSMWIAWVRQMPGKGLEWMGIIYPGDSDTRYSPSFQGQVTISADKSISTAYLQWSSLKASDTAMYFCARQRTFYYDSSDYFDYWGQGTLVTVSS VL: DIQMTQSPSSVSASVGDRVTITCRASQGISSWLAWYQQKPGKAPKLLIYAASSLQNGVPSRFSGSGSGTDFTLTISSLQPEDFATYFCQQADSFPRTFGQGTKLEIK is 0.56

Sure, the documented Binding Signal (fold over 6E7 parental antibody) for 6E7 variant V55 (antibody, V domains shown) VH: EVQLVQSGAEVKKPGESLKISCKGSGYSFTSYWIAWVRQMPGKGLEWMGIIYPGDSDTIYSPSHQGQVTISADKSISTAYLQWSSLKASDTAMYFCARQRTFYYDSSDYFDYWGQGTLVTVSS VL: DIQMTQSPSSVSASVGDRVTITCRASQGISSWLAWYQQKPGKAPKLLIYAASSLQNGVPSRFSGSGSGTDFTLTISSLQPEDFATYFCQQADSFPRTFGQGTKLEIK is 0.66
